This collection of values is drawn from patent US8372967B2.

Provide the recorded percent inhibition of rat DGAT2 for the entries that follow.
# Tested on: rat DGAT2 mRNA
# measurement-protocol: Dose-dependent inhibition of DGAT2 in A10 cells (Tables 82, 83)
# Type: cell-based
# settings: 5.56 nM (Table 83)
# Description: Additional short antisense compounds targeted to DGAT2 mRNA were tested in vitro in a dose-response experiment. A10 cells were prepared as described above and treated with 6.25, 12.5, 25.0, 50.0, 100.0, and 200.0 nM short antisense compounds to determine if DGAT2 inhibition occurs in a dose-dependent manner. […] Additional short antisense compounds targeted to DGAT2 mRNA were tested in vitro. […] DGAT2 mRNA was measured using quantitative real-time PCR, as described herein. […]
Strand notation (5' to 3'): a small letter for the sugar, then the base; units joined by * are phosphorothioate-linked, units joined directly phosphodiester-linked; [ ] holds rarer units or linkages, { } end groups; capitals alone tell only the bases. e = 2'-O-(2-methoxyethyl) (MOE); [5mC] = 5-methylcytosine; d = 2'-deoxy (DNA)
Numbers only, in %.

Check out these entries, answers already filled in.
Task: Under rat DGAT2 mRNA: percent inhibition of rat DGAT2 value of 372594 (antisense eA*e[5mC]*dA*dG*dA*dA*dG*dG*d[5mC]*dA*d[5mC]*d[5mC]*e[5mC]*eA) [compound 372594] ?
Result: 0

Task: And what about the substance 372578 (antisense eT*eG*dT*dG*dT*d[5mC]*dT*dT*d[5mC]*dA*d[5mC]*d[5mC]*eA*eG) [compound 372578] ?
Result: 0

Next item in the queue.
Task: Under rat DGAT2 mRNA: percent inhibition of rat DGAT2 value of 372602 (antisense e[5mC]*e[5mC]*dA*dG*dG*d[5mC]*dA*dT*dG*dG*dA*dG*e[5mC]*eT) [compound 372602] ?
Result: 10
